Please provide measured growth for the entries that follow.
# Tested on: NCI-H522 lung
# assay details: NCI-60 one-dose screen, 48 h (100 = growth as untreated, 0 = no growth, -100 = all killed)
# setup conditions: 10 µM
Compounds without any hit were thinned out: in the full panel of roughly 83,000, 20% have a hit. Activity calls are given as the source filed them. The calls were made as follows: active = growth percent below 10; inactive = the rest.

Look at this compound and give its reported growth. CCCCCCCCCCCCCCCC[n+]1cccc(C#N)c1
54.7% (inactive)

For the compound shown here, O=C(NC1CCN(Cc2ccccc2)CC1)c1cc(-c2cccnc2)nc2ccc(Cl)cc12 , give the reported growth.
90.4% (inactive)

Entry CC(=O)C(CO)C(=O)Nc1ccccc1 (stereo not drawn) has what growth?
82.3% (inactive)

I am curious: what growth value has been reported for COc1cc(OC)c(NC(=O)n2ncc3cc(Nc4ncnc5ccccc45)ccc32)cc1Cl ?
72.1% (inactive)

Value lookup for growth; key = Cc1nc2c(nnn2-c2ccccc2)c2nc(-c3ccc(Cl)cc3)oc(=O)c12
99.7% (inactive)

What value of growth has been reported for the following compound? CCN(CCO)CCNc1ccc(C)c2sc3cc(OC)ccc3c(=O)c12
62.6% (inactive)

Which measured growth value corresponds to CNCCCNCCCCNCCCN1C(=O)c2ccc3c4c(ccc(c24)C1=O)C(=O)N(CCCNCc1ccccc1OC)C3=O ?
31.3% (inactive)

Entry COC(=O)c1ccc2[nH]c(O)c(C(=Nc3ccc(N(C)C(=O)CN4CCN(C)CC4)cc3)c3ccc(N)cc3)c2c1 has what growth?
75.5% (inactive)

Requested read-out: growth. Entry: Nc1nc2c(c3ncncc13)C(c1cccc(C(F)(F)F)c1)Cc1ncncc1-2 (stereo not drawn)
32.9% (inactive)

Request the reported growth associated with CC(C)(C)C(=O)OCOP(=O)(OCOC(=O)C(C)(C)C)C1CC(O)N(O)C1=O (stereo not drawn)
8.02% (active)

GET /values?readout=growth&item= Cc1c(Cc2ccccc2)c(=O)oc2c(C)c(OCC(=O)n3nc(C#N)cc3N)ccc12
79.4% (inactive)

Quick check: growth of O=C(N/N=C\c1ccc(Cl)cc1)C(=O)N/N=C\c1ccc(Cl)cc1 ?
101% (inactive)

Requested field: growth. Item: Nc1cc2c(cc1Br)[nH]c(=O)c1ccccc12
43% (inactive)

Fill blank: measured growth of the compound COc1ccc2sc(-n3nc4nc5n(c(=O)c4c3N)-c3ccccc3Sc3ccccc3-5)nc2c1 is ____.
75.6% (inactive)

I'd like to know its growth. The compound in question is Cc1ccc2c(c1)C(=O)CCS2
95.2% (inactive)

Entry COC(=O)c1ccc2[nH]c(O)c(C(=Nc3ccc(N(C)C(=O)CN4CCN(C)CC4)cc3)c3cccc(OC)c3)c2c1 : reported growth = ?
12.1% (inactive)

I am curious: what growth value has been reported for CCCNC(=O)Oc1ccc(/C(=C(/C)Cc2ccc(OC)cc2)c2ccc(OCCN3CCCC3)cc2)cc1 ?
71.8% (inactive)

Find the recorded growth belonging to CCC(C)C1NC(=O)C(CC(C)C)NC(=O)C(C)NC(=O)C(C(C)C)NC(=O)C(CCCCN)NC(=O)C(CC(C)C)NC(=O)C(C(C)C)NC(=O)[C@H](C)NC(=O)C(C(C)CC)NC(=O)C(CCCN=C(N)N)NC(=O)C(CCCCN)NC(=O)C(CCCN=C(N)N)NC(=O)C(CCCCN)NC(=O)C([C@H](C)CC)NC(=O)C(CCCCN)NC1=O (stereo partly drawn) and report it.
-5.53% (active)
